System: PC-3
assay protocol: Cytotoxicity against human PC3 cells after 72 hrs by MTS assay
Assay type: functional, cell-based
reported conditions: PC-3, 72 h
Reported IC50 values follow for various molecules
readout type: IC50 (nM)

- molecule: "CC(=O)O[C@@]12CO[C@@H]1C[C@H](O)[C@@]1(C)C(=O)[C@H](O)C3=C(C)[C@@H](OC(=O)[C@H](O)[C@@H](NC(=O)OC(C)(C)C)c4ccccc4)C[C@@](O)([C@@H](OC(=O)c4ccccc4)[C@H]21)C3(C)C [DOCETAXEL ANHYDROUS]"
  test target: "PC-3"
  readout type: "IC50"
  reported result: 0.5
- molecule: "COc1ccc2c(c1)CCCN2c1nc(Cl)nc2ncccc12"
  test target: "PC-3"
  readout type: "IC50"
  reported result: 12.7
- molecule: "CC(=O)O[C@H]1C(=O)[C@@]2(C)[C@H]([C@H](OC(=O)c3ccccc3)[C@]3(O)C[C@H](OC(=O)[C@H](O)[C@@H](NC(=O)c4ccccc4)c4ccccc4)C(C)=C1C3(C)C)[C@]1(OC(C)=O)CO[C@@H]1C[C@@H]2O [PACLITAXEL]"
  test target: "PC-3"
  readout type: "IC50"
  reported result: 3.7

====

The entries below come with measured MTD at 120 h values attached.
assay protocol: Acute toxicity in nude mouse administered as qd for 5 days
reported conditions: in vivo

- smiles: "COc1ccc2c(c1)CCCN2c1nc(Cl)nc2ccoc12"
  MTD at 120 h, mg/kg: 30
- smiles: "COc1ccc2c(c1)CCCN2c1nc(Cl)nc2ncccc12"
  MTD at 120 h, mg/kg: 50

====

Tested on: A-375
assay protocol: Cytotoxicity against human A375 cells after 72 hrs by MTS assay
Format: functional, cell-based
reported conditions: A-375, 72 h
In plain terms, low IC50, meaning strictly below 40 nM, gives criterion met, and everything else gives criterion not met.

- compound: "COc1ccc2c(c1)CCCN2c1nc(Cl)nc2c(C)csc12"
  discrete label: "criterion not met"
- compound: "COc1cc(N(C)c2nc(Cl)nc3ncccc23)cc(OC)c1OC"
  discrete label: "criterion not met"
- compound: "CN(c1ccc2c(c1)OCO2)c1nc(Cl)nc2ncccc12"
  discrete label: "criterion not met"
- compound: "COc1ccc2c(c1)CCCN2c1nc(Cl)nc2cccnc12"
  discrete label: "criterion met"
- compound: "COc1ccc2c(c1)C(O)CCN2c1nc(Cl)nc2ncccc12 (stereo unspecified)"
  discrete label: "criterion met"
- compound: "COc1ccc2c(c1)CCCN2c1nc(Cl)nc2ncccc12"
  discrete label: "criterion met"

====

Test system: A-375
assay protocol: Cytotoxicity against human A375 cells after 72 hrs by MTS assay
Assay type: functional, cell-based
reported conditions: A-375, 72 h
Parameter: IC50. Scope: all listed entries.
readout type: IC50 (nM)

- smiles: "COc1ccc2c(c1)CCCN2c1nc(C)nc2onc(C)c12"
  readout type: "IC50"
  units label: "nM"
  inequality sign: "="
  reported result: 16.1
- smiles: "COc1ccc2c(c1)OCCN2c1nc(Cl)nc2ncccc12"
  readout type: "IC50"
  units label: "nM"
  inequality sign: "="
  reported result: 223
- smiles: "COc1ccc2c(c1)C(=O)CCN2c1nc(Cl)nc2ncccc12"
  readout type: "IC50"
  units label: "nM"
  inequality sign: ">"
  reported result: 1000
- smiles: "COc1ccc2c(c1)CCCN2c1nc(Cl)nc2ccoc12"
  readout type: "IC50"
  units label: "nM"
  inequality sign: "="
  reported result: 3.2
- smiles: "COc1ccc2c(c1)CCCN2c1nc(Cl)nc2ncn(C)c12"
  readout type: "IC50"
  units label: "nM"
  inequality sign: "="
  reported result: 39.6
- smiles: "COc1ccc(N(C)c2nc(Cl)nc3ncccc23)cc1OC"
  readout type: "IC50"
  units label: "nM"
  inequality sign: "="
  reported result: 39
- smiles: "COc1ccc2c(c1)CCCN2c1nc(Cl)nc2c1cnn2C"
  readout type: "IC50"
  units label: "nM"
  inequality sign: ">"
  reported result: 1000
- smiles: "COc1ccc2c(c1)CCCN2c1nc(C)nc2[nH]ncc12"
  readout type: "IC50"
  units label: "nM"
  inequality sign: ">"
  reported result: 1000
- smiles: "COc1ccc2c(n1)CCCN2c1nc(Cl)nc2ncccc12"
  readout type: "IC50"
  units label: "nM"
  inequality sign: ">"
  reported result: 1000

Reference source: ChEMBL document CHEMBL4024804
